# System: Escherichia coli
# ASSAY_NAME: Activity of Escherichia coli BL21(DE3) beta-lactamase TEM152
For each record, write down the corresponding kcat.
Answers are plain numbers, in s⁻¹.

{"columns": ["COMPOUND", "kcat (s⁻¹)"],
 "data": [
  ["CC1(C)S[C@@H]2[C@H](NC(=O)[C@H](C(=O)O)c3ccsc3)C(=O)N2[C@H]1C(=O)O", 51],
  ["C[C@H]1[C@H](NC(=O)/C(=N\\OC(C)(C)C(=O)O)c2csc(N)n2)C(=O)N1S(=O)(=O)O (stereo in doubt)", 3.5],
  ["CC(C)(O/N=C(\\C(=O)N[C@@H]1C(=O)N2C(C(=O)[O-])=C(C[n+]3ccccc3)CS[C@H]12)c1csc(N)n1)C(=O)O", 16]
]}

Please look at the following compound next.
So for CC1(C)S[C@@H]2[C@H](NC(=O)[C@H](N)c3ccc(O)cc3)C(=O)N2[C@H]1C(=O)O , the logged kcat turned out to be 258

* * *

# ASSAY_NAME: Inhibition of Escherichia coli BL21(DE3) beta-lactamase TEM151
MEASURED_ATTRIBUTE: IC50 (nM)
One number for each entry, in nM.

{"columns": ["MOLECULE", "IC50 / nM"],
 "data": [
  ["C[C@]1(Cn2ccnn2)[C@H](C(=O)O)N2C(=O)C[C@H]2S1(=O)=O", 270]
]}

So for O=C(O)[C@H]1/C(=C/CO)O[C@@H]2CC(=O)N21 , the logged IC50 turned out to be 170

* * *

# Test system: Escherichia coli
# ASSAY_NAME: Activity of Escherichia coli BL21(DE3) beta-lactamase TEM151
MEASURED_ATTRIBUTE: Km (µM)
Give bare numbers, in µM.

{"columns": ["COMPOUND", "SYSTEM_TESTED", "UNITS_TEXT", "OBSERVED_VALUE"],
 "data": [
  ["CC(=O)OCC1=C(C(=O)O)N2C(=O)[C@@H](NC(=O)Cc3cccs3)[C@H]2SC1 [CEPHALOTHIN]", "Escherichia coli", "µM", 330],
  ["CCN1CCN(C(=O)N[C@@H](C(=O)N[C@@H]2C(=O)N3[C@@H]2SC(C)(C)[C@@H]3C(=O)O)c2ccccc2)C(=O)C1=O [PIPERACILLIN]", "Escherichia coli", "µM", 44]
]}

Please look at the following compound next.
Observed Km, Escherichia coli, CC(C)(O/N=C(\C(=O)N[C@@H]1C(=O)N2C(C(=O)[O-])=C(C[n+]3ccccc3)CS[C@H]12)c1csc(N)n1)C(=O)O [CEFTAZIDIME] : 250

* * *

For each record, write down the corresponding kcat.
# Test system: Escherichia coli
# ASSAY_NAME: Activity of Escherichia coli BL21(DE3) beta-lactamase TEM28
Give bare numbers, in s⁻¹.

Solved entries (count: 5):
{"columns": ["COMPOUND", "kcat, s⁻¹"],
 "data": [
  ["CO/N=C(\\C(=O)N[C@@H]1C(=O)N2C(C(=O)O)=C(COC(C)=O)CS[C@H]12)c1csc(N)n1", 9],
  ["CC(=O)OCC1=C(C(=O)O)N2C(=O)[C@@H](NC(=O)Cc3cccs3)[C@H]2SC1", 194],
  ["CC1(C)S[C@@H]2[C@H](NC(=O)[C@H](C(=O)O)c3ccsc3)C(=O)N2[C@H]1C(=O)O", 38],
  ["CC(C)(O/N=C(\\C(=O)N[C@@H]1C(=O)N2C(C(=O)[O-])=C(C[n+]3ccccc3)CS[C@H]12)c1csc(N)n1)C(=O)O", 64],
  ["C[C@H]1[C@H](NC(=O)/C(=N\\OC(C)(C)C(=O)O)c2csc(N)n2)C(=O)N1S(=O)(=O)O (stereo in doubt)", 43]
]}

List the reported kcat of each compound below.
1. CO/N=C(\C(=O)N[C@@H]1C(=O)N2C(C(=O)[O-])=C(C[N+]3(C)CCCC3)CS[C@H]12)c1csc(N)n1
2. CCN1CCN(C(=O)N[C@@H](C(=O)N[C@@H]2C(=O)N3[C@@H]2SC(C)(C)[C@@H]3C(=O)O)c2ccccc2)C(=O)C1=O
3. CC1(C)S[C@@H]2[C@H](NC(=O)[C@H](N)c3ccc(O)cc3)C(=O)N2[C@H]1C(=O)O

Result ::
1. 8
2. 213
3. 88
